# assayedSystem: T1, PUF4 RNA-binding domain (Saccharomyces cerevisiae, UniProt P25339 537-888)
# T1 sequence: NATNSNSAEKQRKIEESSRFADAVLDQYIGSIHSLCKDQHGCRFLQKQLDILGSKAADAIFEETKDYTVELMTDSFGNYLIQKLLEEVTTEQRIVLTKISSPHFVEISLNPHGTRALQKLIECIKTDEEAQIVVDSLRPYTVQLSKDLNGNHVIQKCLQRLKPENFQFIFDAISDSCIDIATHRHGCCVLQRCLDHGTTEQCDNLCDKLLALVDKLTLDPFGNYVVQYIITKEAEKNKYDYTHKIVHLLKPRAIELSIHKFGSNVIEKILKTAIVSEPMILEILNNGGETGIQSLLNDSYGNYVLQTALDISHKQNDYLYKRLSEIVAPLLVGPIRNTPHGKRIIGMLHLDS
# protocolSummary: Mg; RNA-MaP; 20 mM Na-HEPES pH 7.4, 30 mM KOAc, 0.75 mM MgCl2, 0.1% Tween-20, 5% glycerol, 0.1 mg/mL BSA, 2 mM DTT; 25 C; 0.0125-409.6 nM protein
# assayContext: tags: N-His6-TEV cleaved; C-SNAP kept, Cy3B-labelled; label: tethered on chip by stalled RNA polymerase
pKd: −log10 of the molar value.
Short version: pKd at least 8 is condition met, less is condition not met.

Is the recorded value of pKd equal to or greater than 8 for this binder? ACAAACCUUAUAUUAUUAUUACAAAC (ssRNA) [Id_ii_S3_P5E.3_K5.2_C5.2_H5.2_A5.1_F5.1_T5.2_[A12T]] condition not met

# check: pKd of Id_ii_S2_P3E.2_K3.1_C3.2_[C-2T]_[T-1G]_H3.1_A3.1_F3.1_T3.2_[T9C]_[A10C] (ssRNA) RNA: UUUGAUUAAUAUGAUAUCGUUCUUUCUUGUGUAUAUACCUUCUUUCUCGAUAUCAUAUUAAUCUUU is greater than or equal to 8 condition not met

Does UCUCUUCUCUCUUGUAUAUAUAUCUCUU (ssRNA) [Ie_S1_P3E.2_K3.1_C3.2_[+-2TCTC]_H3.1_A3.1_F3.1_T3.2] have a reported pKd of at least 8? condition met

Quick check: does UCUCUUUGUACGCACUCUCUU (ssRNA) [Ic_S1_P4E.1_K4.1_C4.1_H4.1_A4.1_[T5C]_[A6G]_[T7C]_F4.1_[T8A]_[A9C]_T4.1] have pKd greater than or equal to 8? condition not met

Dear colleague, could you confirm whether ACAAACUGCUUAUUAUUAACAAAC (ssRNA) [Ie_S3_P5E.1_K5.1_C5.1_H5.1_[+2CT]_A5.1_F5.1_T5.1] has pKd at or above 8? condition not met

Record UCUCUUGCACACUAUUACGUCUCUU (ssRNA) [Id_ii_S1_P4E.4_K4.3_C4.2_[C-2G]_[T-1C]_H4.3_A4.1_F4.1_T4.2_[G10C]_[T11G]] ; criterion: pKd no lower than 8. Met? condition not met

Please check the record UCUCUUCUUAUAUUAUUACGUCUCUU (ssRNA) [Id_ii_S1_P5E.3_K5.2_C5.2_H5.2_A5.1_F5.1_T5.2_[T11C]_[A12G]] and state if its pKd is at or above 8. condition not met

Item Id_ii_S2_P4E.2_K4.1_C4.2_[C-2G]_[T-1C]_H4.1_A4.1_F4.1_T4.2_[G10A]_[T11A] (ssRNA) RNA: UUUGAUUAAUAUGAUAUCGUUCUUUCUGCUGUAUAUUAAAUUCUUUCUCGAUAUCAUAUUAAUCUUU with pKd of 8 or above? condition met

API: above_or_equal(metric=pKd, cutoff=8) for item Ie_S2_P4E.1_K4.1_C4.1_H4.1_A4.1_[+5CTC]_F4.1_T4.1 (ssRNA) RNA: UUUGAUUAAUAUGAUAUCGUUCUUUCUUGUAUCUCAUUAUUCUUUCUCGAUAUCAUAUUAAUCUUU condition not met

Check the entry Ic_S4_P4E.1_K4.1_C4.1_H4.1_A4.1_[T5C]_[T7C]_F4.1_[A9T]_T4.1 (ssRNA) RNA: UUUGACAACUGAUCGUUCUUUCUUGUACACUUUUCUUUCUCGAUCAGUUGUCUUU : does pKd equal or exceed 8? condition met

Is pKd for UCUCUUUGUACUCAGCUCUCUU (ssRNA) [Ic_S1_P5E.1_K5.1_C5.1_H5.1_A5.1_[T5C]_[A7C]_F5.1_[T8A]_[T9G]_[A10C]_T5.1] at or above 8? condition not met

State whether the measured pKd reaches 8, counting equality as reaching it, for UCUCUUUGUAACGGUCUCUCUU (ssRNA) [Ic_S1_P5E.1_K5.1_C5.1_H5.1_A5.1_[T5A]_[T6C]_[A7G]_F5.1_[T8G]_[A10C]_T5.1] condition not met

Is it the case that Ic_S4_P4E.1_K4.1_C4.1_H4.1_A4.1_[T5C]_[A6G]_[T7C]_F4.1_[T8G]_[A9T]_T4.1 (ssRNA) RNA: UUUGACAACUGAUCGUUCUUUCUUGUACGCGUUUCUUUCUCGAUCAGUUGUCUUU has pKd reaching or exceeding 8? condition not met
